B1: V5-KSR mutant KSR:M902D [Drosophila] / Flag-CNK^2–549 [Drosophila] (parent)
chain 1: MSSNNNAPASAPDTGSTNANDPISGSLSVDSNLVIIQDMIDLSANHLEGLRTQCAISSTLTQQEIRCLESKLVRYFSELLLAKMRLNERIPANGLVPHTTGNELRQWLRVVGLSQGTLTACLARLTTLEQSLRLSDEEIRQLLADSPSQREEEELRRLTRAMQNLRKCMESLESGTAASNNDPEQWHWDSWDRPTHIHRGSVGNIGLGNNSTASPRTHHRQHGVKGKNSALANSTNFKSGRQSPSATEELNSTQGSQLTLTLTPSPPNSPFTPSSGLSSSLNGTPQRSRGTPPPARKHQTLLSQSHVQVDGEQLARNRLPTDPSPDSHSSTSSDIFVDPNTNASSGGSSSNVLMVPCSPGVGHVGMGHAIKHRFTKALGFMATCTLCQKQVFHRWMKCTDCKYICHKSCAPHVPPSCGLPREYVDEFRHIKEQGGYASLPHVHGAAKGSPLVKKSTLGKPLHQQHGDSSSPSSSCTSSTPSSPALFQQRERELDQAGSSSSANLLPTPSLGKHQPSQFNFPNVTVTSSGGSGGVSLISNEPVPEQFPTAPATANGGLDSLVSSSNGHMSSLIGSQTSNASTAATLTGSLVNSTTTTSTCSFFPRKLSTAGVDKRTPFTSEYTDTHKSNDSDKTVSLSGSASTDSDRTPVRVDSTEDGDSGQWRQNSISLKEWDIPYGDLLLLERIGQGRFGTVHRALWHGDVAVKLLNEDYLQDEHMLETFRSEVANFKNTRHENLVLFMGACMNPPYLAIVTSLCKGNTLYTYIHQRREKFAMNRTLLIAQQIAQGMGYLHAREIIHKDLRTKNIFIENGKVIITDFGLFSSTKLLYCDMGLGVPHNWLCYLAPELIRALQPEKPRGECLEFTPYSDVYSFGTVWYELICGEFTFKDQPAESIIWQVGRGMKQSLANLQSGRDVKDLLMLCWTYEKEHRPQFARLLSLLEHLPKKRLARSPSHPVNLSRSAESVF
chain 2: AYINIAEWTPDQVTDWIKGLDESMKGYLYEFSKQEIGGRALLNIRPYELENLGMLRIGHQEIVLEAVENLRNFHYHLKNDNLQFMALHVATAAKNLHRELARNHAESTKIDTRILHDITRTIATLKPLVGSLERTPFRKQEMYREYCGNVLKCGLELATIAHRDRFALQPVPAIRQSAERLENLANFVIQDISDPMVLQPASLNLVTLKKRESELGFNIESSYNGIHRVTDIKYNSPAHNSGKIEDGDEIVQINYQTVVGWQHRTVLEHLREALPDVVLTVKKRPKHTKMFGQIYMQPYRLPSKKRNMAARWAAQMPSPRAAFLTLDTEQLATGGTGSAVPDPSKSLSSEKREVLTKANPVSSASDSDSSCSDIPTPTDPKLAAREIRLYYPKPRALLQRRNTICGCEYLSLKNSDLVVPSWHERKPGIGSPTNCDPGSPSIRDKSISFGYGLEMAARPTTCIGIAGDTSTDKARRMFHEARKLKQLTEDSQREFLVDRYKPGVSKVVRFDAKEDYVMKNEKFICNVENTILETFEPIPFADEGDEDA

# Variants of: B1
# Test details: GST pull-down, immunoblot quantification
# Measurement setup: with Flag-CNK^2–549 [Drosophila]; S2 cells; Flag-CNK2–549, GST-HYP + RRM (Ha-RASV12, Pyo-RAF, Myc-MEK) co-expressed; captured via GST-HYP; anti-Myc (MEK) blot; parent: 1

Mutation notation	ratio to parent
chain 1 M902D	0.05
chain 1 E926R	1.23
chain 1 Y925D	0.07
chain 1 K903D	0.04
